# Study Target: Mouse ACVR2A (mouse, UniProt P27038 20-135, limits assumed); note: test concentration or dose not given here
# Sequence (P27038 20-135 limits assumed): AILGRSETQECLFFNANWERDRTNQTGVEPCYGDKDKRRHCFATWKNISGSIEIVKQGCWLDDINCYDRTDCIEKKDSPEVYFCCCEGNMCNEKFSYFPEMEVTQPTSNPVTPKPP
# Protocol: ELISA
Metric Name: optical density (OD)
Write the number in OD without appending the unit.

Known results for binders:
INSERT INTO results (binder, units_symbol, measured_number) VALUES
  ('365_B01 (antibody, V domains shown, VH/VL only) VH: EVQLLESGGGLVQPGGSLRLSCAASGFTFDSYGMHWVRQAPGKGLEWVASINYNSGYTSYADSVKGRFTISRDNSKNTLYLQMNSLRAEDTAVYYCARSANWHDTALDYWGQGTLVTVSS VL: DIQMTQSPSSLSASVGDRVTITCRASQSISSYVNWYQQKPGKAPKLVIYAATSRASGVPSRFSGSGSGTDFTLTISSLQPEDFATYYCQQSYESPLTFGGGTKVEIK', 'OD', 2.65),
  ('367_A02 (antibody, V domains shown, VH/VL only) VH: EVQLLESGGGLVQPGGSLRLSCAASGFTFDSYGMNWVRQAPGKGLEWVSSINYNSGYKGYADSVKGRFTISRDNSKNTLYLQMNSLRAEDTAVYYCARGATWHDTHLDYWGQGTLVTVSS VL: DIQMTQSPSSLSASVGDRVTITCRASQSIISYLNWYQQKPGKAPKLLIYAVTSRASGVPSRFSGSGSGTDFTLTISSLQPEDFATYYCQQSYDTPLTFGGGTKVEIK', 'OD', 2.42),
  ('372_F02 (antibody, V domains shown, VH/VL only) VH: EVQLLESGGGLVQPGGSLRLSCAASGFTFSSYGMHWVRQAPGKGLEWVASINYNGGYTSYADSVKGRFTISRDNSKNTLYLQMNSLRAEDTAVYYCARGATWHDTHLDYWGQGTLVTVSS VL: DIQMTQSPSSLSASVGDRVTITCRASQSILTYLNWYQQKPGKAPKLVIYAATSRHSGVPSRFSGSGSGTDFTLTISSLQPEDFATYYCQQSYDLPLTFGGGTKVEIK', 'OD', 3.09),
  ('367_D05 (antibody, V domains shown, VH/VL only) VH: EVQLLESGGGLVQPGGSLRLSCAASGFTFSDYSMNWVRQAPGKGLEWVSSINYNGGYKSYADSVKGRFTISRDNSKNTLYLQMNSLRAEDTAVYYCARGATWHDTHLDYWGQGTLVTVSS VL: DIQMTQSPSSLSASVGDRVTITCRASQSIISYVNWYQQKPGKAPKLVIYAATSLASGVPSRFSGSGSGTDFTLTISSLQPEDFATYYCQQSYDSPLTFGGGTKVEIK', 'OD', 1.37);

Name the reported optical density value associated with the binder 371_G01 (antibody, V domains shown, VH/VL only) VH: EVQLLESGGGLVQPGGSLRLSCAASGFTFSDYSMNWVRQAPGKGLEWVSNINYNGGYTSYADSVKGRFTISRDNSKNTLYLQMNSLRAEDTAVYYCARGATWHDTHLDYWGQGTLVTVSS VL: DIQMTQSPSSLSASVGDRVTITCRASQSILTYLNWYQQKPGKAPKLLIYAATSLASGVPSRFSGSGSGTDFTLTISSLQPEDFATYYCQQSYDLPLTFGGGTKVEIK
2.24
